- test.system: 3CLpro (Severe acute respiratory syndrome coronavirus 2)
- assay.notes: biochemical

smiles.text	test.system	IC50 [µM]
O=c1cc(-c2ccc(O)c(-c3c(O)cc(O)c4c(=O)cc(-c5ccc(O)cc5)oc34)c2)oc2cc(O)cc(O)c12	3CLpro (Severe acute respiratory syndrome coronavirus 2)	143
O=c1cc(-c2ccc(O)c(O)c2)oc2cc(O)cc(O)c12	3CLpro (Severe acute respiratory syndrome coronavirus 2)	343

----------
- test.system: 3CLpro (Severe acute respiratory syndrome coronavirus 2)
- assay.notes: biochemical
pIC50: −log10 of the molar value.

molecule	pIC50
CC(=O)c1c(O)c(C)c(O)c(Cc2c(O)c3c(c(C(=O)/C=C/c4ccccc4)c2O)OC(C)(C)C=C3)c1O [rottlerin]	4.43
